Reported normalized RNA/DNA level without ligand (log10) is given for each of the following variants.
B1: library; a variant is named by its letters at N, in order (parent)
chain: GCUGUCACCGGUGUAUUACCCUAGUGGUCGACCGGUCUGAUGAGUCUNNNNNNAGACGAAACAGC

# Variants of: B1
# protocol: normalized RNA/DNA level without ligand (relative to sTRSVctl = 100) (log10 (% of sTRSVctl)); ligand: hypoxanthine (xanthine aptamer); higher = less ribozyme self-cleavage, higher mRNA level
# condition summary: HEK293T, reporter: mCherry (pCS4076), ligand present: no
recorded endpoint: normalized RNA/DNA level without ligand (log10)

{"columns": ["query sequence", "reading"],
 "data": [
  ["GCUGUCACCGGUGUAUUACCCUAGUGGUCGACCGGUCUGAUGAGUCUACAGGGAGACGAAACAGC [ACAGGG]", 1.44],
  ["GCUGUCACCGGUGUAUUACCCUAGUGGUCGACCGGUCUGAUGAGUCUCGCACCAGACGAAACAGC [CGCACC]", 1.9],
  ["GCUGUCACCGGUGUAUUACCCUAGUGGUCGACCGGUCUGAUGAGUCUGUGUCGAGACGAAACAGC [GUGUCG]", 1.6],
  ["GCUGUCACCGGUGUAUUACCCUAGUGGUCGACCGGUCUGAUGAGUCUAACAUAAGACGAAACAGC [AACAUA]", 1.8],
  ["GCUGUCACCGGUGUAUUACCCUAGUGGUCGACCGGUCUGAUGAGUCUUCUCGAAGACGAAACAGC [UCUCGA]", 1.83],
  ["GCUGUCACCGGUGUAUUACCCUAGUGGUCGACCGGUCUGAUGAGUCUGCUACCAGACGAAACAGC [GCUACC]", 1.76],
  ["GCUGUCACCGGUGUAUUACCCUAGUGGUCGACCGGUCUGAUGAGUCUCGGCGUAGACGAAACAGC [CGGCGU]", 1.91],
  ["GCUGUCACCGGUGUAUUACCCUAGUGGUCGACCGGUCUGAUGAGUCUGCUCAGAGACGAAACAGC [GCUCAG]", 1.31],
  ["GCUGUCACCGGUGUAUUACCCUAGUGGUCGACCGGUCUGAUGAGUCUGUUUUGAGACGAAACAGC [GUUUUG]", 1.57],
  ["GCUGUCACCGGUGUAUUACCCUAGUGGUCGACCGGUCUGAUGAGUCUGCUCUAAGACGAAACAGC [GCUCUA]", 1.79],
  ["GCUGUCACCGGUGUAUUACCCUAGUGGUCGACCGGUCUGAUGAGUCUCAGAAAAGACGAAACAGC [CAGAAA]", 1.58]
]}
